B1: FERM and PDZ domain-containing protein 4, residues 75 to 154; numbered along this chain, Q14CM0 (parent)
chain: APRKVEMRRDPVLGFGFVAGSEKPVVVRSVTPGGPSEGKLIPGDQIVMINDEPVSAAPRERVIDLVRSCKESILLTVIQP

- Variants of: B1
- ASSAY_COMMENT: abundance fitness (aPCA) (normalised: wild type 0, dead -1); higher = more abundant; growth selection in yeast, the domain comes from the species named
- EXPERIMENTAL_SETUP: Homo sapiens
MEASUREMENT_KIND: abundance fitness
Respond using a number only.

Look over these answered cases.
   sequence_variant  recorded_measurement
0              P11R                -0.123
1               M7V                -0.034
2              G34V                -0.962
3              V54E                -0.771
4              V18S                -0.095

INPUT: Quick check: abundance fitness of P32A ?
OUTPUT: -0.029

INPUT: Field request: abundance fitness | item: S21A
OUTPUT: 0.005
